- Test Protocol: Drug excretion in rat urine at 2 mg/kg, iv
- Format: ADME, organism-based
- Set-up: dose 2 mg/kg, route intravenous
- Test Conditions: read-out: Drug excretion

| Structure Smiles String | dose excreted |
| --- | --- |
| CN1CC[C@@H](NC(=O)c2ccc3c(c2)OCCO3)C[C@@H]1c1nc2ccccc2[nH]1 | < 5% |

###

Quick list: Papp A→B per entry.
- Test Protocol: Apparent permeability of the compound across apical to basolateral side in human Caco2 cells
- Format: ADME, cell-based
- Test Conditions: Caco-2

| Compound | Papp A→B |
| --- | --- |
| O=C(N[C@@H]1CCC[C@H](c2nc3ccccc3[nH]2)C1)c1ccc2c(c1)OCCO2 | 85 ×10⁻⁶ cm/s |
| CN1CC[C@@H](NC(=O)Nc2ccc(C#N)cc2)C[C@@H]1c1nc2ccccc2[nH]1 [GLASDEGIB] | 5.98 ×10⁻⁶ cm/s |
